# SYSTEM: Dopamine D2 receptor (Rattus norvegicus, UniProt P61169)
# Sequence (P61169 whole entry): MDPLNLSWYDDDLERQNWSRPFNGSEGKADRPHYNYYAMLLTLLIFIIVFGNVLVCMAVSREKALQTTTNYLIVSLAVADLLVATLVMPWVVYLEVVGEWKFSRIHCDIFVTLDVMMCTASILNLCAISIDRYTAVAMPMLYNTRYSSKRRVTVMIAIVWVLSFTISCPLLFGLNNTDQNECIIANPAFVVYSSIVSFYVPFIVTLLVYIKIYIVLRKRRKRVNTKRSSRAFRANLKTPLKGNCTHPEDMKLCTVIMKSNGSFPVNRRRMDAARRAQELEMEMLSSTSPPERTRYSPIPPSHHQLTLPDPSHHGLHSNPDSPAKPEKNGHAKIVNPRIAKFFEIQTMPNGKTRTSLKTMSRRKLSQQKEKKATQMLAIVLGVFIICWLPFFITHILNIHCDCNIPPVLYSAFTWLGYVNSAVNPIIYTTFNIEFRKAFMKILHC
# ASSAY PROTOCOL: Dopamine D2 receptor binding test ([3H] raclopride)
# MEASUREMENT CONTEXT: rat striate body membrane; [3H] raclopride 1 nM; 1 hour at 25° C.
pIC50: −log10 of the molar value.
ENDPOINT NAME: pIC50

Record excerpt, results attached:
INPUT SMILES: NC(=O)c1nc(-c2ccccc2)c(CCN2CCC(=Cc3ccc(F)cc3)CC2)s1
SYSTEM: Dopamine D2 receptor (Rattus norvegicus, UniProt P61169)
ENDPOINT NAME: pIC50
MEASURED RESULT: 6.20
--
INPUT SMILES: Cc1ccc(C=C2CCN(CCc3sc(C(N)=O)nc3-c3ccc(F)cc3)CC2)cc1
SYSTEM: Dopamine D2 receptor (Rattus norvegicus, UniProt P61169)
ENDPOINT NAME: pIC50
MEASURED RESULT: 6.36
--
INPUT SMILES: Cc1ccc(-c2nc(C(N)=O)sc2CCN2CCC(=Cc3ccc(F)cc3)CC2)cc1
SYSTEM: Dopamine D2 receptor (Rattus norvegicus, UniProt P61169)
ENDPOINT NAME: pIC50
MEASURED RESULT: 6.73

(A) NC(=O)c1nc(-c2ccc(F)cc2)c(CCN2CCC(=Cc3ccccc3)CC2)s1
(B) NC(=O)c1nc(-c2ccc(F)cc2)c(CCN2CCC(=Cc3cccc(F)c3)CC2)s1
(C) NC(=O)c1nc(-c2ccc(F)cc2)c(CCN2CCC(C(=O)c3ccc(F)cc3)CC2)s1
Query block: With regard to pIC50, arrange the entries in ascending order, please. Give your ranking as a list of the labels in the requested order.
Result block: B, A, C
